assay: DUSP6 inhibitors restoring Erk phosphorylation by chemical complementation, primary imaging in DUSP6-transfected HeLa (AID 609); conditions: HeLa MKP-3 transfected, phospho-Erk imaging KS statistic; measured here: cell density z-score; at 10 µM; cells stimulated with TPA for 15 min
# z-score values compiled below
Number only, please.

Input line: Please report the recorded z-score for `Nc1nonc1-c1noc(-c2ccccc2)n1` .
Output line: 0.154

Input line: Please report the recorded z-score for `CC1(C)Cc2c(C#N)c(SCC(=O)c3ccccc3)nc(N3CCCC3)c2CO1` .
Output line: 1.33

Input line: Please report the recorded z-score for `Cc1ccc2[nH]c3c(NCCN4CCOCC4)ncnc3c2c1` .
Output line: -2.07

Input line: Please report the recorded z-score for CCC(NC(C)C)C(O)c1ccc(O)c2[nH]c(=O)ccc12 (centres undefined) .
Output line: 0.193

---

experiment: DUSP6 inhibitors restoring Erk phosphorylation by chemical complementation, primary imaging in DUSP6-transfected HeLa (AID 609); conditions: HeLa MKP-3 transfected, phospho-Erk imaging KS statistic; measured here: cell density z-score; at 10 µM; cells stimulated with TPA for 15 min
ASSAY METRIC: z-score
Number only, please.

Input line: Please report the recorded z-score for CCOC(=O)C1=C(C)NC(=O)NC1c1ccc2c(c1)OCO2 (stereo not drawn) .
Output line: 0.562

Input line: Please report the recorded z-score for `Fc1ccc2[nH]c3c(N4CCN(C5CCCCC5)CC4)ncnc3c2c1` .
Output line: -1.35

Input line: Please report the recorded z-score for `CCOC(=O)N1CC=C2C(C#N)=C(N)C(C#N)(C#N)[C@H](c3cccs3)[C@H]2C1` .
Output line: 0.0987

---

# fluorescence slope values compiled below
target: Voltage-gated potassium channel subunit beta-2 (Rattus norvegicus) (UniProt P62483); test: KvBeta enzyme negative modulators, primary screen, biochemical, NADPH fluorescence (AID 622); conditions: recombinant KvBeta, 4-cyanobenzaldehyde reduction, at 10 µM, stronger effect = higher value;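 further: slope of raw intensity against log time taken from 70 to 1610 s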
Sequence (P62483 whole entry, looked up): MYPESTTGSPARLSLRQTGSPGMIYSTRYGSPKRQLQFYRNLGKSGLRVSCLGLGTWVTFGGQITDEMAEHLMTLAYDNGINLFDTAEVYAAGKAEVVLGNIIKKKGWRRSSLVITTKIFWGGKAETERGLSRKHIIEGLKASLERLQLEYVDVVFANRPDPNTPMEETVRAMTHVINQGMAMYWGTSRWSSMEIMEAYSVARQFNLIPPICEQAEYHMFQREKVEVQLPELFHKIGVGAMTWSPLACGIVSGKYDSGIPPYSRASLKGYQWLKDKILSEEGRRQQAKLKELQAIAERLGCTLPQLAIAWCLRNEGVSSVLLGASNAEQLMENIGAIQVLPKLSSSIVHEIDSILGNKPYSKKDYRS
Number only, please.

Some molecules with known fluorescence slope results, for comparison:
CCCCn1c(-c2ccc(Cl)cc2)nc2c(=O)n(C)c(=O)[nH]c21 :: -0.398
COc1cc(-c2nn3c(-c4cccnc4)nnc3s2)cc(OC)c1OC :: -0.41
Cc1c(O)c(CN2CCCC(C)C2)cc2c3c(c(=O)oc12)CCC3 (stereo not drawn) :: -0.0135
Cc1ccsc1C1NC(=O)c2c(sc3c2CCCC3)N1 (stereo not drawn) :: -0.411
COc1cccc(-c2nc(NC(C)(C)C)c3ccccc3n2)c1O :: -0.422
CC(C)(C)NCC(=O)c1c[nH]c2ccccc12 :: -0.35
CCCCC(=O)O[C@H]1CC[C@H]2[C@@H]3CCc4cc(O)ccc4[C@H]3CC[C@]12C :: -0.453
CSCCC(CO)NC(=O)OCc1ccccc1 (stereo not drawn) :: -0.503
CCCCC(=O)O[C@]1(C(=O)CO)CC[C@H]2[C@@H]3CCC4=CC(=O)CC[C@]4(C)[C@H]3[C@@H](O)C[C@@]21C :: -0.554
CCOc1nnnc2c1sc1nc(N3CCOCC3)c3c(c12)CC(C)(C)OC3 :: -0.35

Input line: Please report the recorded fluorescence slope for CCN(CC)CCCN1C(=O)C(O)=C(C(=O)c2ccc(C)o2)C1c1ccc(C)o1 (stereo not drawn) .
Output line: -0.485

Input line: Please report the recorded fluorescence slope for `CCCCNC(=O)N1CCOCCOCCN(C(=O)NCCCC)CCOCC1` .
Output line: -0.55

Input line: Please report the recorded fluorescence slope for `Cc1csc2nc(CSc3nc4ccccc4o3)cn12` .
Output line: -0.545
